molecular target: T1, human GFRα3 expressed with a C-terminal myc-myc-hexahistidine tag (human, UniProt O60609 32-374, biotinylated (sites not given) in ELISA format 2 and in the Octet cross-competition; not in SPR); assay: Octet cross-competition; biotin-hGFRα3-mmH pre-saturated with first antibody H4H2236N3
T1 construct: also called hGFRα3-mmh; hGFRα3-mmH
T1 sequence (O60609 other isoform, or with tags, fused parts or gaps limits assumed): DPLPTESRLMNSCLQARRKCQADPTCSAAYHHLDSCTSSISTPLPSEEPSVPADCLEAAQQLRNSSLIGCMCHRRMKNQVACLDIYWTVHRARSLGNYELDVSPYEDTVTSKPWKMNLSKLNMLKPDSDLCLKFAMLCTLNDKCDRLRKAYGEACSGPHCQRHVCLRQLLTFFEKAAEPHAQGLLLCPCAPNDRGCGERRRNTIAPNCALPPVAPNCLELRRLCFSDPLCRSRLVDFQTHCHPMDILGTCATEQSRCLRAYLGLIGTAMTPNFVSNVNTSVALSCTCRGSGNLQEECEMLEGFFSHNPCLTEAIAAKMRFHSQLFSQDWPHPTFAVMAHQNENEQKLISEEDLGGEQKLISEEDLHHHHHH
# maps each entry to its binding response of second antibody (nm)
// return numeric value only (unit: nm, not printed)

[
  {
    "BINDER": "H4H2294S (antibody, human IgG4, V domains shown, human IgG4 Fc (H4H)) VH: EVQLVESGGGLVQPGGSLRLSCAASGFTFSSYAMSWVRQAPGKGLEWVSVISGSGGSTYYADAVKGRFTISRDNSKHTLYLQMNSLRAEDTAVYYCTKPSSYSSSNFYYGMDVWGQGSTVTVSS VL: DIQLTQSPSSVSASVGDRVTITCRASQGISSWLAWYQQKPGKAPKLLIYAASSLQSGVPSRFSGSGSGTDFTLTISSLQPEDFATYYCQQTNSFPFPFGPGTKVDIK",
    "UNIT LABEL": "nm",
    "binding response of second antibody (nm)": 0
  },
  {
    "BINDER": "H4H2236N3 (antibody, human IgG4, V domains shown, human IgG4 Fc (H4H)) VH: EVQLLESGGNLVQPGGSLRLSCAASGFTFSSYAMTWVRQAPGKGLEWVSTISGSGTSTYYADSVKGRFTISRDNSRDTVFLQMNSLRAEDTAVYYCSKPSALRFLHWLAMDVWGQGTLVTVSS VL: DIQMTQSPSSLSAFVGDRVTITCRASQDIRNYLDWFQQKPGKAPKSLIYAASNLQSGVPSRFGGSGSGTDFTLTINSLQPEDFVTYYCQQYNSYPPTFGGGTKVEIK",
    "UNIT LABEL": "nm",
    "binding response of second antibody (nm)": 0
  }
]

Below: the item to evaluate.
Ask: Identify binding response of second antibody (nm) associated with the binder H4H2352S (antibody, human IgG4, V domains shown, human IgG4 Fc (H4H); also called H4H2352S-1) VH: EVQLVQSGAEVKKPGASVKVSCKASGYTFTNYGITWVRQAPGQGLEWMGWISAYNGNTGYAQKFQGRVTMTTDTSTSTAYMELRSLRSDDTAVYYCAREDYDFWRAFDIWGQGTMVTVSS VL: EIVLTQSPGTLSLSPGERATLSCRASQSVSSTYLAWLQQKPGQAPRLLIYGASSRATGIPDRFSGSGSGTDFTLTINRLEPEDFAVYYCQQYAYSPYTFGQGTKLEIK
Result: 1.91
